- protocol text: stability in fetal calf serum (estimation of in vivo stability)
- Assay type: in vitro ADME
- stated conditions: fetal calf serum; 37° C., 6 hours
Where a SMILES comes first, the peptide text is derived from it. [ ]: non-standard residue; d: D form.
measurement name: remaining at 6 h (%)

- molecule: "CC[C@H](C)[C@H](NC(=O)[C@H](Cc1ccccc1)NC(=O)[C@H](NC(=O)[C@H](CCCCN)NC(=O)[C@H](Cc1ccc(O)cc1)NC(=O)[C@@H](N)CCCNC(=N)N)C(C)C)C(=O)N[C@@H](CCCCN)C(=O)N[C@@H](Cc1ccc(O)cc1)C(=O)N[C@@H](CCCNC(=N)N)C(=O)N[C@H](Cc1c[nH]cn1)C(=O)O [RYK-C6S, RYKvFIKYRh] (H-RYK[dV]FIKYR[dH]-OH; N-terminus and C-terminus assumed)"
  measurement name: "remaining at 6 h"
  readout unit: "%"
  endpoint result: 100
